molecular target: Voltage-dependent N-type calcium channel subunit alpha-1B (Homo sapiens) (UniProt Q00975); assay: disruptors of CaV2.2 binding to Mint1 – biochemical, HTRF (AID 2073); conditions: HTRF protein-protein interaction, Mint1-CaV2.2; measured here: average of repeat tests; at 20 µM; stronger effect = higher value
Sequence (Q00975 whole entry, looked up): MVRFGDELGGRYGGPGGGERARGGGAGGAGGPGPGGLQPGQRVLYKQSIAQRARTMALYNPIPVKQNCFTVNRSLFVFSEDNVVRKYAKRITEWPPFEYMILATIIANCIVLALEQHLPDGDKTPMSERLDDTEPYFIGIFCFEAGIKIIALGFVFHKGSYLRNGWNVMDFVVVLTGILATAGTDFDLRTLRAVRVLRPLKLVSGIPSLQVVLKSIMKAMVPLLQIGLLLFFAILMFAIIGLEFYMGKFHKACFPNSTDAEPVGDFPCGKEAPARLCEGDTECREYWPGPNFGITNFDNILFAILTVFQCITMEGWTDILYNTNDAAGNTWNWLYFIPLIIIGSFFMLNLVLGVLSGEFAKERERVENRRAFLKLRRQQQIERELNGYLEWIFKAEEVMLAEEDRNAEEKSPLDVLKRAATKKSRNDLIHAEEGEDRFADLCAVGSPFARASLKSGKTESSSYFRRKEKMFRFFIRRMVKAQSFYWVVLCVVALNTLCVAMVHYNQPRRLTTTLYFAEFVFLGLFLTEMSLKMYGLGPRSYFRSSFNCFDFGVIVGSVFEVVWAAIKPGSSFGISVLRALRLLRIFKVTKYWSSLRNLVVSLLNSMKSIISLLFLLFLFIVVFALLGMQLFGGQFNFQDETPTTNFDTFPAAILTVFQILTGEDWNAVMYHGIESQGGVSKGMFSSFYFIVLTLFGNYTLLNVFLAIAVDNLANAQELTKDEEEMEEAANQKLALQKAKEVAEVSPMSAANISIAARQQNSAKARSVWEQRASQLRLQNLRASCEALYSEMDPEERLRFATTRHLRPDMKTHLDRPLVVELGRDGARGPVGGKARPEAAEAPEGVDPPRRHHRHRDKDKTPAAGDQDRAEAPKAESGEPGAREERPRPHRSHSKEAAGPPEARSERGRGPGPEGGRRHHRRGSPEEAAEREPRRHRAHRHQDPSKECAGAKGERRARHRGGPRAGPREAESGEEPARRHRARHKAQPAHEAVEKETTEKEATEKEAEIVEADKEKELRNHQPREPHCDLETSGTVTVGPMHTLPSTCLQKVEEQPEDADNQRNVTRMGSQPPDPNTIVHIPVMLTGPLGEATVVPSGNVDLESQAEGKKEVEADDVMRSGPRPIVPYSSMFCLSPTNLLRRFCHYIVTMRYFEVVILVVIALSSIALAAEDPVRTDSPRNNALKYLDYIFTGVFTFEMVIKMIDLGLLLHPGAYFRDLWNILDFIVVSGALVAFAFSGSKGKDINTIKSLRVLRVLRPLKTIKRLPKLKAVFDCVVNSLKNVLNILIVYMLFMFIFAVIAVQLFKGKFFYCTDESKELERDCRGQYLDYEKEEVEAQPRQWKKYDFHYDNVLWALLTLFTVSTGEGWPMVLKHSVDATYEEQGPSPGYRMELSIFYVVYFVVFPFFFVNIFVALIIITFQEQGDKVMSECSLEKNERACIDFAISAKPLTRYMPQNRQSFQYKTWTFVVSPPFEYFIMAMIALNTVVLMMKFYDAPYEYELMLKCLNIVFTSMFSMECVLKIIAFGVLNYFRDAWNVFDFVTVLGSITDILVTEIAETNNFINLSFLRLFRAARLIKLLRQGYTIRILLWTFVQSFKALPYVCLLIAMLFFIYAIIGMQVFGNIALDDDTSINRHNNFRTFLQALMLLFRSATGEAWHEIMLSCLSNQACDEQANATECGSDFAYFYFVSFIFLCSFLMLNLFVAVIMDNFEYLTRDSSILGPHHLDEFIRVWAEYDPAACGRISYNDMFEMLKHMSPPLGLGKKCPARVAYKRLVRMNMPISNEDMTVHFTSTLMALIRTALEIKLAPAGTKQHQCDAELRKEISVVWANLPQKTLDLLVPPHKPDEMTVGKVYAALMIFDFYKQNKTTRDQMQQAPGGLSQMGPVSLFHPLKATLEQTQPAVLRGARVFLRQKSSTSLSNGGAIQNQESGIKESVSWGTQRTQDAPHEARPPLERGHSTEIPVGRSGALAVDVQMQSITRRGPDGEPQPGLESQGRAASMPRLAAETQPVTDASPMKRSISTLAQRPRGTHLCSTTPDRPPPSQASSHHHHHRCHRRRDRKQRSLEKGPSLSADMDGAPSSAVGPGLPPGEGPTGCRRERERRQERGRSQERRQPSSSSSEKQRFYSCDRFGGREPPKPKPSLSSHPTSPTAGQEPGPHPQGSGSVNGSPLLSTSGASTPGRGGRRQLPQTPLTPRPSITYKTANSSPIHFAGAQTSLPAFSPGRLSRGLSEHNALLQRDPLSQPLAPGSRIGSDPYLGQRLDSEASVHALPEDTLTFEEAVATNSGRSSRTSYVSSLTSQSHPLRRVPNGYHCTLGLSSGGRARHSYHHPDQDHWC
The campaign covered roughly 290,000 compounds. About 570 (0.2%) were called active. Another 1% or so got no clear call; they are omitted. For the sample, actives were picked, then their nearest neighbours and some compounds at random.
measured.parameter: inhibition (%)

# compound, system.under.test, measured.parameter, unit.abbreviation, assay.value
data = [
    ("CC(=O)Nc1ccc(/C=N/Nc2ccc(C(=O)c3c(C)cc4ccccn34)cc2[N+](=O)[O-])cc1", "Voltage-dependent N-type calcium channel subunit alpha-1B (Homo sapiens) (UniProt Q00975)", "inhibition", "%", 29.6),
    ("Cc1ccc(OCC(=O)N/N=C/C=C/c2ccco2)cc1", "Voltage-dependent N-type calcium channel subunit alpha-1B (Homo sapiens) (UniProt Q00975)", "inhibition", "%", 27.1),
    ("NC(=S)n1[nH]c(-c2ccc([N+](=O)[O-])cc2)c(N=Nc2ccccc2[N+](=O)[O-])c1=O", "Voltage-dependent N-type calcium channel subunit alpha-1B (Homo sapiens) (UniProt Q00975)", "inhibition", "%", 20.6),
    ("N#CC1=C2SCN(c3ccccc3)CN2C(=O)CC1c1ccccc1Cl (stereo unspecified)", "Voltage-dependent N-type calcium channel subunit alpha-1B (Homo sapiens) (UniProt Q00975)", "inhibition", "%", 35.2),
    ("COc1ccc(N2Cc3ccc(C(=O)N/N=C\\c4ccc(O)cc4O)cc3C2)cc1", "Voltage-dependent N-type calcium channel subunit alpha-1B (Homo sapiens) (UniProt Q00975)", "inhibition", "%", 29.4),
    ("O=[N+]([O-])C(=c1ccc2c(c1)N1C3=C(CCCC3)CC3CCCCC31N=2)[N+](=O)[O-] (stereo unspecified)", "Voltage-dependent N-type calcium channel subunit alpha-1B (Homo sapiens) (UniProt Q00975)", "inhibition", "%", 92.8),
]

====

biological target: Voltage-dependent N-type calcium channel subunit alpha-1B (Homo sapiens); experiment: disruptors of CaV2.2 binding to Mint1 – biochemical, HTRF (AID 2073); settings: HTRF protein-protein interaction, Mint1-CaV2.2; at 20 µM
Hit rate of the full screen: of about 290,000 compounds, about 570 (0.2%) were called active. Another 1% or so got no clear call; they are omitted. Cut-off read from the data, not from the text of the source: active = inhibition mostly above about 51% (no sharp cut-off); inconclusive = no clear call, values can overlap the other calls; inactive = mostly below about 53%. Shown is part of a subset that was picked to be rich in actives.
Outcomes: active, inactive

# compound, assigned.category
records = [
    ("Cc1ccc(NC(=O)CN2C(=O)S/C(=C\\c3ccc(-c4cccc(C(=O)O)c4C)o3)C2=O)cc1", "inactive"),
    ("O=C(Nc1cccc(S(=O)(=O)NC2=NCCC2)c1)c1cc(-c2ccco2)nc2ccccc12", "active"),
    ("Cn1c(=O)c(C(=O)COC(=O)c2cc(-c3ccccc3)nc3ccccc23)c(N)n(Cc2ccccc2)c1=O", "inactive"),
    ("COc1cccc(C(=O)NC2CC3CCCC(C2)N3CC(=O)Nc2ccc(N(C)C)cc2)c1 (stereo not given)", "inactive"),
    ("O=C(O)c1cc(-c2ccco2)nc2ccccc12", "inactive"),
]

====

target: Voltage-dependent N-type calcium channel subunit alpha-1B (Homo sapiens); test: disruptors of CaV2.2 binding to Mint1 – biochemical, HTRF (AID 2073); conditions: HTRF protein-protein interaction, Mint1-CaV2.2; at 20 µM
Hit rate of the full screen: of about 290,000 compounds, about 570 (0.2%) were called active. Roughly 1% stayed inconclusive and do not appear here. Rule as the data show it: active = inhibition mostly above about 51% (no sharp cut-off); inconclusive = no clear call, values can overlap the other calls; inactive = mostly below about 53%. The sample as a whole holds a higher share of actives than the screen did.
Outcomes: 1.0 = active, 0.0 = inactive

# compound, assigned.category
rows = [
    ("N#CC(C#N)=c1ccc2c(c1)N1C3=C(CCCC3)CC3CCCCC31N=2 (stereo unspecified)", 0.0),
    ("COc1ccc2nc3ccccc3nc2c1", 0.0),
    ("O=[N+]([O-])C(=c1ccc2c(c1)N1C3=C(CCCC3)CC3CCCCC31N=2)[N+](=O)[O-] (stereo unspecified)", 1.0),
    ("O=C(COc1ccccc1Cl)c1ccc[nH]1", 1.0),
    ("COc1ccc(-c2noc(N3CCC(C(=O)Nc4ccccc4Cl)CC3)n2)cc1", 0.0),
    ("OC1CNCc2cc3c(cc21)OCCO3 (stereo unspecified)", 0.0),
]

====

target: Voltage-dependent N-type calcium channel subunit alpha-1B (Homo sapiens); assay: disruptors of CaV2.2 binding to Mint1 – biochemical, HTRF (AID 2073); details: HTRF protein-protein interaction, Mint1-CaV2.2; at 20 µM; stronger effect = higher value
Out of some 290,000 compounds screened, about 570 (0.2%) were called active. About 1% were inconclusive and are not listed. This is one part of a sample in which actives are shown more often than they occur.
measured.parameter: inhibition (%)

# compound, measured.parameter, assay.value
rows = [
    ("COc1ccc(-c2csc(NC(=O)CN3C(=O)CCC3=O)n2)c(OC)c1", "inhibition", 6.5),
    ("C=C(C)CSc1[nH]c(=O)cc(C)c1C#N", "inhibition", 1.3),
    ("Cn1cnnc1SCC(=O)Nc1sccc1C#N", "inhibition", 2.2),
    ("COc1ccc(C(=O)Nc2ccc(Cl)cc2C(=O)NCCO)cc1", "inhibition", -1.8),
    ("O=C(NCc1ccc(Cl)cc1)c1nccnc1CO", "inhibition", 11.8),
    ("CC(=O)Nc1ccc2c(c1)nc1n2CCN(C2CCCCC2)C1", "inhibition", 30.1),
    ("O=C(COC(=O)CCC(=O)c1cccs1)NCc1cccs1", "inhibition", -3.4),
    ("Cc1cc(C)c2c(c1)NC(c1cc3c(cc1Br)OCO3)C1CC=CC21 (stereo not given)", "inhibition", 12.6),
    ("O=C1N/C(=C/c2ccc(N3CCOCC3)o2)C(=O)N1c1ccccc1", "inhibition", 44.8),
    ("O=C(COC(=O)c1ccc(NS(=O)(=O)c2cccs2)cc1)NCc1ccco1", "inhibition", 59.4),
    ("O=Cc1cccn1-c1cccnc1", "inhibition", 8.9),
    ("N#Cc1ccsc1NC(=O)CSc1nnnn1-c1ccc(O)cc1", "inhibition", 50.6),
    ("CSc1cccc(NC(=O)c2cc(S(=O)(=O)N3CCCC3)cn2C)c1", "inhibition", 8.5),
    ("COc1ccc(CCNCC(=O)Nc2c(C)cc(C)cc2C)cc1OC", "inhibition", -6.8),
    ("COCCn1c(SCC(=O)Nc2ccc(F)cc2)nc2ccccc2c1=O", "inhibition", 6.9),
    ("O=C(COC(=O)c1ccc(S(=O)(=O)Nc2ccccc2)cc1)NCc1ccco1", "inhibition", -1.1),
    ("Cc1cccc(C)c1-n1c(C)nn(CC2CC2)c1=O", "inhibition", -5.7),
    ("O=C(COC(=O)CCC(=O)c1cccs1)NCc1ccco1", "inhibition", 57.8),
    ("O=C(COC(=O)c1ccc(NS(=O)(=O)c2cccs2)cc1)NCC1CCCO1 (stereo not given)", "inhibition", -3),
    ("CCCCCCCNC(=O)CC(NS(=O)(=O)c1ccc(NC(C)=O)cc1)C(C)C (stereo not given)", "inhibition", 1.5),
    ("COCCn1c(SCc2cccnc2)nnc1-c1c[nH]c2ccccc12", "inhibition", -0.4),
    ("CC(=O)CC1(O)C(=O)Nc2ccccc21 (stereo not given)", "inhibition", 33.4),
    ("Cc1ccc(C(=O)N/C(=C\\c2ccc(-c3cccc([N+](=O)[O-])c3)o2)C(=O)NCCCN2CCOCC2)cc1", "inhibition", -1.4),
    ("O=C(Nc1ccc2c(c1)nc1n2CCN(C2CCCCC2)C1)c1ccco1", "inhibition", 57.2),
    ("Fc1cccc(Cl)c1CSc1nnc2ccccn12", "inhibition", 4),
    ("Cc1[nH]n(-c2ccccc2)c(=S)c1C=Nc1cccc([N+](=O)[O-])c1", "inhibition", 34.3),
    ("CCCCc1ccc(-c2csc(/C(C#N)=C/c3ccco3)n2)cc1", "inhibition", 49.9),
    ("O=C1CC(c2ccco2)Cc2nc(Nc3ccc(F)cc3)ncc21 (stereo not given)", "inhibition", 6.4),
    ("O=C(CCCSc1ccccc1)Nc1nc(-c2ccco2)c(-c2ccco2)s1", "inhibition", 71.8),
    ("CCc1nnc(NC(=O)C2CC(=O)N(c3ccc4c(c3)OCCO4)C2)s1 (stereo not given)", "inhibition", 3),
    ("COc1cc(/C=C2\\SC(N)=NC2=O)ccc1OCC(=O)Nc1ccc(C)cc1", "inhibition", 61.4),
    ("CCCCc1ccc(-c2csc(/C(C#N)=C/c3ccc(C)o3)n2)cc1", "inhibition", 16.8),
    ("O=C(CCl)Nc1nc(-c2ccco2)c(-c2ccco2)s1", "inhibition", 66),
    ("O=C(Nc1nnc(C2CC2)s1)C1CC(=O)N(c2ccc3c(c2)OCCO3)C1 (stereo not given)", "inhibition", 12.6),
    ("Nc1cc([N+](=O)[O-])ccc1O", "inhibition", 2.9),
]
